Biological target: Orexin/Hypocretin receptor type 1 (Homo sapiens)
Experiment: Agonist activity at OX1R (unknown origin)
endpoint label: pEC50
Numbers only, as −log10 of the molar value.

Give the reported value of pEC50 for this record: COc1ccc(-c2cccc(C(=O)N(C)C)c2)cc1S(=O)(=O)Nc1cccc(CCNC(=O)c2ccccc2-n2nccn2)c1
4.44

====

Target: Orexin/Hypocretin receptor type 1 (Homo sapiens, UniProt O43613)
Sequence (O43613 whole entry): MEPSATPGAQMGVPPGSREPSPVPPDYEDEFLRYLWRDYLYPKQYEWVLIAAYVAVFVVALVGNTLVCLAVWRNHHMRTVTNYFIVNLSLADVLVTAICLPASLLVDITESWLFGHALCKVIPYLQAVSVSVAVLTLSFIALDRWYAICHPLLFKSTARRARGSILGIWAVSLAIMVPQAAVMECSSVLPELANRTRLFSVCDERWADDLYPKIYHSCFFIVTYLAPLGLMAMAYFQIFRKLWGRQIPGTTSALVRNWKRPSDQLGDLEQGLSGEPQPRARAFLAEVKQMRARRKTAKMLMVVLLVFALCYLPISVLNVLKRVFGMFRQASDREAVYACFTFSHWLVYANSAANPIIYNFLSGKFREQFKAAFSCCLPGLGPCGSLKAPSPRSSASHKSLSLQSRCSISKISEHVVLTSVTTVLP
pEC50: −log10 of the molar value.
Decide using pEC50: a value greater than or equal to 6 is criterion met, a smaller one is criterion not met.

These solved cases illustrate the format of a correct answer.
COc1cccc(CC(=O)N(C)C2CCCc3ccc(NS(=O)(=O)c4cc(CCC(=O)N(C)C)ccc4OC)cc32)c1 (centres undefined); criterion not met
COc1cccc(CC(=O)N(C)C2CCCc3ccc(NS(=O)(=O)c4cc(C(=O)N(C)C)ccc4OC)cc32)c1 (centres undefined); criterion met
COc1cccc(CC(=O)N(C)C2CCCc3ccc(NS(=O)(=O)c4cc(/C=C/C(=O)Nc5ccccn5)ccc4OC)cc32)c1 (centres undefined); criterion met
COc1cccc(CC(=O)N(C)C2CCCc3ccc(NS(=O)(=O)c4cc(/C=C/C(=O)Nc5ccncc5)ccc4OC)cc32)c1 (racemic); criterion met
CNC(=O)/C=C/c1ccc(OC)c(S(=O)(=O)Nc2ccc3c(c2)C(N(C)C(=O)Cc2cccc(OC)c2)CCC3)c1 (centres undefined); criterion met
COCCNC(=O)/C=C/c1ccc(OC)c(S(=O)(=O)Nc2ccc3c(c2)C(N(C)C(=O)Cc2cccc(OC)c2)CCC3)c1 (centres undefined); criterion met

Reported pEC50 at or above 6? COc1cccc(CC(=O)N(C)[C@H]2CCCc3ccc(NS(=O)(=O)c4cc(/C=C/C(=O)Nc5ccncc5)ccc4OC)cc32)c1
criterion not met
